Assay: Pharmacokinetic experiment in rats after intragastric administration
Format: in vivo
Conditions: rat, po, female SD rats, 10 mg/kg, plasma

molecule: COc1cc2c(Oc3ccc(NC(=O)C4(C(=O)Nc5ccc(F)cc5)CC4)cc3F)ccnc2cc1OCCCCCCCSC(C)=O [Example 12]
half-life [min]: 180

molecule: COc1cc2c(Oc3ccc(NC(=O)C4(C(=O)Nc5ccc(F)cc5)CC4)cc3F)ccnc2cc1OCCCCCNC(=O)CSC(=O)[C@H](N)Cc1cn(C)c2ccccc12 [Example 93, benzenesulfonate]
half-life [min]: 329

molecule: COc1cc2c(Oc3ccc(NC(=O)C4(C(=O)Nc5ccc(F)cc5)CC4)cc3F)ccnc2cc1OC/C=C/CCCCSC(C)=O [Example 24]
half-life [min]: 401

molecule: COc1cc2c(Oc3ccc(NC(=O)C4(C(=O)Nc5ccc(F)cc5)CC4)cc3F)ccnc2cc1OCCCCCNC(=O)CSC(=O)C(C)(C)C [Example 89]
half-life [min]: 356
